Test system: KRas G12D mutant
Assay: Ras GTP Binding Domain Inhibition Assay, KRas G12D mutant
Conditions: at 20 μM; with SOS; Table 8
Measurement Name: KRas G12D mutant + SOS: % inh.

COCCCn1c(-c2nccn2C)nc2sc(-c3ccn(C(C)C)n3)c(C)c2c1=O [Compound 31] : 0 (0 = 0% inhibition)
COCCCn1c(-c2nccn2C)nc2sc(-c3ccn(C(C)C)n3)c(-c3ccccc3)c2c1=O [Compound 36] : 0 (0 = 0% inhibition)

// next item, KRas G12D mutant + SOS: % inh. requested
Q: GET KRas G12D mutant + SOS: % inh. where system = KRas G12D mutant and item = COCCOc1nc(-c2nccn2C)nc2sc(-c3ccn(C(C)C)n3)c(C)c12 [Compound 30]
Ans: 0 (0 = 0% inhibition)
